Reference for the values: patent US12162819B2

Provide the recorded Particle size (nm) for the entries that follow.
- Test Method Notes: Particle size and PDI of lipid nanoparticles by dynamic light scattering
- Assay type: physicochemical
- Experimental Conditions: lipid nanoparticle with the cationic lipid, cholesterol, DSPC, DMG-PEG2000 (50/38.5/10/1.5 mol%), luciferase mRNA, N/P 6
Form entry: value (nm) — number only.

// Particle size (nm) value for CCCCCCCCOC(=O)C(C)(C)CCCCCC(CCCCCC(C)(C)C(=O)OCCCCCCCC)OC(=O)CCN(C)C [Compound 2] : 229.35

Entry CCCCCCCCOC(=O)C(C)(C)CCCCCC(CCCCCC(C)(C)C(=O)OCCCCCCCC)OC(=O)CCCN(C)C [Compound 19] ; Particle size (nm) = 135.15

Record CCCCCCCCCCOC(=O)C(C)(C)CCCCCC(CCCCCC(C)(C)C(=O)OCCCCCCCCCC)OC(=O)C1CCN(C)CC1 [Compound 99] , field Particle size (nm): 139.99

Data point: CCCCCCCCCSC(=O)C(C)(C)CCCCCC(CCCCCC(C)(C)C(=O)SCCCCCCCCC)OC(=O)CCCN(C)C [Compound 37] ; Particle size (nm) = 92.18

Particle size (nm) reading for CCCCCCCCCCOC(=O)C(C)(C)CCCCCC(CCCCCC(C)(C)C(=O)OCCCCCCCCCC)OC(=O)CCN1CCCC1 [Compound 92] : 107.56

CCCCCCCCCOC(=O)C(C)(C)CCCCCC(CCCCCC(C)(C)C(=O)SCCCCCCCCC)OC(=O)CCCN(C)C (stereo not shown) [Compound 41] yielded Particle size (nm) of 104.27

The recorded Particle size (nm) for entry CCCCCCCCCCNC(=O)C(C)(C)CCCCCC(CCCCCC(C)(C)C(=O)NCCCCCCCCCC)OC(=O)CN(C)C [Compound 13] equals 157.10
